Measured values drawn from patent US20260224701A1 for this set.

Catalogue of binders with associated kon
biological target: Human rhB7-H3 (human) (UniProt Q5ZPR3); experiment: SPR (Biacore 8K/T200), Fab-SASA captured on immobilised albumin, B7-H3 as analyte, 1:1 model

[
  {
    "binder": "AHF15938 Fab-SASA (Fab, V domains shown) VH: QVQLVQSGAEVKKPGASVKVSCKASGYTFTSYVMHWVRQAPGQRLEWMGYINSYSDGTKYNEKFKGRATITRDTSASTAYMELSSLRSEDTAVYYCARWGGLGNGAMDYWGQGTLVTVSS VL: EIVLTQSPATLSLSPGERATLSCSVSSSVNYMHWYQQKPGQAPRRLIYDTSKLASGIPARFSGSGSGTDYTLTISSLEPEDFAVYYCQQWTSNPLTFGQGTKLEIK",
    "kon / M⁻¹ s⁻¹": 245000
  },
  {
    "binder": "Grafted Fab-SASA (Fab, V domains shown) VH: QVQLVQSGAEVKKPGASVKVSCKASGYTFTSYVMHWVRQAPGQRLEWMGYINSYSDGTKYNEKFKGRVTITRDTSASTAYMELSSLRSEDTAVYYCARWGGLGNGAMDYWGQGTLVTVSS VL: EIVLTQSPATLSLSPGERATLSCSVSSSVNYMHWYQQKPGQAPRLLIYDTSKLASGIPARFSGSGSGTDFTLTISSLEPEDFAVYYCQQWTSNPLTFGQGTKLEIKR",
    "kon / M⁻¹ s⁻¹": 413000
  },
  {
    "binder": "AHF15948 Fab-SASA (Fab, V domains shown) VH: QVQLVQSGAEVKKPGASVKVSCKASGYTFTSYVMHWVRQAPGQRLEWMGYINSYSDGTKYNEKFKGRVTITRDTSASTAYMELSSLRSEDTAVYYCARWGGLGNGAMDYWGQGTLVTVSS VL: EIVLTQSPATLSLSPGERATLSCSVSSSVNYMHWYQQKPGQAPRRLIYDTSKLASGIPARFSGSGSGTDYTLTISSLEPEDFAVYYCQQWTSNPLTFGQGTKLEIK",
    "kon / M⁻¹ s⁻¹": 255000
  },
  {
    "binder": "Chimeric Fab-SASA (Fab, V domains shown) VH: EVQLQQSGPELVKPGASVKMSCKASGYTFTSYVMHWVRQSPGQGLEGIGYINSYSDGTKYNEKFKGKATLTSDKSSSTAYMELSGLTSEDSAVYYCARWGGLGNGAMDYWGQGTSVTVSS VL: QIVLTQSPAIMSASPGEKVTMTCSVSSSVNYMHWYQQKSGTSPKRWIYDTSKLASGVPARFSASGSGTSYSLTISSMEAEDAATYYCQQWTSNPLTFGAGTKLELKR",
    "kon / M⁻¹ s⁻¹": 262000
  },
  {
    "binder": "AHF15945 Fab-SASA (Fab, V domains shown) VH: QVQLVQSGAEVKKPGASVKVSCKASGYTFTSYVMHWVRQAPGQRLEWMGYINSYSDGTKYNEKFKGRVTITSDTSASTAYMELSSLRSEDTAVYYCARWGGLGNGAMDYWGQGTLVTVSS VL: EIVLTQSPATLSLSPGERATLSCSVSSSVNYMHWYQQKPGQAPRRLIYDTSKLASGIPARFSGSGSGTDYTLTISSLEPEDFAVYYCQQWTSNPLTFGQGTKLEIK",
    "kon / M⁻¹ s⁻¹": 274000
  }
]
